Data provenance is patent US20220233661A1.

# Lookup of reported median OS of non-vaccinated cases keyed by entry
# Tested on: cancer patients
# Protocol text: Test Example 4: correlation between vaccination with individual peptides (or peptide sets) and OS, Cox proportional hazards regression
# Type: in vivo, human
# Cond: 2,085 advanced cancer patients (stage IV+recurrence)
Just the number in months, nothing appended.

Seq text	Measurement target	Quantity name	Unit string	Meas value
DYVREHKDNI (listed as Homo sapiens) [EGFR-800]	cancer patients	median OS of non-vaccinated cases	months	9.6
HYTNASDGL (listed as Homo sapiens) [Lck-208]	cancer patients	median OS of non-vaccinated cases	months	10

Memo: TFDYLRSVL (listed as Homo sapiens) [Lck-486] , reported median OS of non-vaccinated cases: 9.6

GET /value?item= ALVEFEDVL (listed as Homo sapiens) [HNRPL-140] &field=median OS of non-vaccinated cases returns 10

Reported median OS of non-vaccinated cases ( LYCESVHNF (listed as Homo sapiens) [PAP-213] ) = 10
